# experimental system: HLA-A*02:01 (Homo sapiens, UniProt P04439, D140Y/D185E/D98H/E176V/E277Q/G131W/G231S/I119V/I121R/I166T/I218V/L300P/L318F/N151K/N90K/P208A/P217A/Q86G/Q94H/R138H/R169H/T345S)
# protocol: MHC binding assay: UV-ligand exchange with beta2m ELISA (peptide exchange yield)
# stated conditions: binding to HLA-A*02:01
observable: Peptide exchange (MHC class I binding score, peptide exchange yield)

- substance: "570 (ALANQIPTV; listed as Homo sapiens) [compound 570]"
  obs value: "“++” (≥20% = ++)"
- substance: "64 (YAAPGGLIGV; listed as Homo sapiens) [compound 64]"
  obs value: "“++” (≥20% = ++)"
- substance: "307 (ALPVSLPQI; listed as Homo sapiens) [compound 307]"
  obs value: "“+++” (≥50 = +++)"
- substance: "373 (SLLEDKGLAEV; listed as Homo sapiens) [compound 373]"
  obs value: "“++” (≥20% = ++)"
- substance: "593 (GLPRFGIEMV; listed as Homo sapiens) [compound 593]"
  obs value: "“+++” (≥50 = +++)"

The substance 608 (SLLSVSHAL; listed as Homo sapiens) [compound 608] showed Peptide exchange (MHC class I binding score, peptide exchange yield) equal to “+++” (≥50 = +++)

The reported Peptide exchange (MHC class I binding score, peptide exchange yield) of the substance 494 (ALQPEPIKV; listed as Homo sapiens) [compound 494] was “++” (≥20% = ++)

GET /value?item= 143 (LLLDITPEI; listed as Homo sapiens) [compound 143] &field=Peptide exchange (MHC class I binding score, peptide exchange yield) returns “++++” (≥75% = ++++)

Reported Peptide exchange (MHC class I binding score, peptide exchange yield) for 30 (LILDWVPYI; listed as Homo sapiens) [compound 30] was “+++” (≥50 = +++)

Per the records, this substance ( 473 (AMATESILHFA; listed as Homo sapiens) [compound 473] ) has Peptide exchange (MHC class I binding score, peptide exchange yield) equal to “+++” (≥50 = +++)
